Experiment: Human HepG2 cell viability assay in 384 well format
Format: toxicity, cell-based
Parameters: dose 125 nL, time 70.5 hour; concentration not given beside the values
Conditions: HepG2 cells, read-out: Inhibition
cytotoxicity at 70.5 h listing for selected compounds.
Quote the value and follow it with the unit of measurement.

Give cytotoxicity at 70.5 h for `CS(=O)(=O)NCc1cnc2n1CCN(Cc1cccs1)CC2`
-4.2%

Give cytotoxicity at 70.5 h for Cc1nc(CCNC(=O)NC(C)Cn2cccn2)cs1 (configuration not stated)
-12.8%

Give cytotoxicity at 70.5 h for `CC(C)c1nn(C)c(N(C)C)c1CNCc1cccc2c1OCO2`
-3.25%

Give cytotoxicity at 70.5 h for CCC1=NC(SCC(=O)c2ccccc2)c2cc(CC)sc2N1 (configuration not stated)
13.5%

Give cytotoxicity at 70.5 h for `CN(C)c1nccc(NCc2cc(-c3ccco3)n[nH]2)n1`
-3.1%

Give cytotoxicity at 70.5 h for `CCNc1ncc(C(=O)NCc2ccc3nsnc3c2)cn1`
0.938%

Give cytotoxicity at 70.5 h for CS(=O)(=O)N1CCCC(c2cncc(Nc3ccccn3)n2)C1 (configuration not stated)
-7.64%

Give cytotoxicity at 70.5 h for `CN(C)CCNC(=O)c1ccn(-c2ccc3ccccn23)n1`
-6.93%

Give cytotoxicity at 70.5 h for `Cc1cc(N(C)Cc2cc(C)on2)n2nc(C)c(C)c2n1`
-5.61%

Give cytotoxicity at 70.5 h for Cc1nc(NC(=O)C(C)N2CCN(c3cnccn3)CC2)sc1C (configuration not stated)
-4.32%

Give cytotoxicity at 70.5 h for COc1ccc(N2CCN(Cc3noc(CC(C)C)n3)C(C)C2=O)cc1 (configuration not stated)
-24.6%

Give cytotoxicity at 70.5 h for `Cc1cc(NC(=O)c2nc(N3CCCC3)ncc2Cl)nc(C(C)C)n1`
2.57%

Give cytotoxicity at 70.5 h for O=C(NCCCn1ccnc1)C1CCC(=O)N1Cc1cccs1 (configuration not stated)
-9.7%
